# System: HT29 colon
# ASSAY_REMARKS: NCI-60 one-dose screen, 48 h
# MEASUREMENT_CONTEXT: 10 µM unless noted
The panel holds about 83,000 compounds, 20% with a hit somewhere; the sample as a whole holds those more often. Activity calls are given as the source filed them. Rule for the calls: active = growth percent below 10; inactive = the rest.
Hello, when you answer, please use one of the following outcomes: active, inactive

Could you kindly confirm the outcome this assay logged for `COc1cc(NC(=O)c2cc3ccccc3nc2Nc2ccc(F)cc2)cc(OC)c1OC` ?
inactive

Could you kindly confirm the outcome this assay logged for `O=c1[nH]c2ccccc2cc1-c1nnc(Cc2ccccc2)o1` ?
inactive

Could you kindly confirm the outcome this assay logged for `COc1ccc(S(=O)(=O)N2CCN(c3cc4c(cc3F)c(=O)c(C(=O)O)cn4C3CC3)CC2)c(OC)c1` ?
inactive

Could you kindly confirm the outcome this assay logged for `COC(=O)CCCCCCN=Cc1c(O)c(O)c(C(C)C)c2cc(C)c(-c3c(C)cc4c(C(C)C)c(O)c(O)c(C=NCCCCCCC(=O)OC)c4c3O)c(O)c12` ?
active

---

# System: SF-539 CNS
# ASSAY_REMARKS: NCI-60 one-dose screen, 48 h
# MEASUREMENT_CONTEXT: 10 µM unless noted
About 83,000 compounds went through this panel and 20% of them were active in at least one assay; those are over-represented in the sample as a whole. Activity calls are given as the source filed them. How the source made its calls: active means growth percent below 10; inactive means the rest.
Hello, when you answer, please use one of the following outcomes: TRUE (active), FALSE (inactive)

Could you kindly confirm the outcome this assay logged for `O=[N+]([O-])c1c(S(=O)(=O)O)cc2cc(S(=O)(=O)O)ccc2c1[N+](=O)[O-]` ?
FALSE

Could you kindly confirm the outcome this assay logged for `Cc1cc(N/C=c2\sc3ncnn3c2=O)no1` ?
FALSE

Could you kindly confirm the outcome this assay logged for `COc1ccc(/C(=N\O)c2cc(OC)c(OC)c(OC)c2)c(OC)c1N` ?
TRUE

Could you kindly confirm the outcome this assay logged for `COc1ccc(Cn2c(SC)nc(=O)n(Cc3ccc(Cl)cc3)c2=O)cc1` ?
FALSE

Could you kindly confirm the outcome this assay logged for `O=S(=O)(NCCCNc1cc(-c2cn(-c3ccccc3)nc2-c2cccc(O)c2)ccn1)c1cccc(F)c1` ?
FALSE

Could you kindly confirm the outcome this assay logged for `COc1cc(CNC(=O)CSc2nc3ccccc3c(=O)n2Cc2cc(OC)c(OC)c(OC)c2)cc(OC)c1OC` ?
FALSE

Could you kindly confirm the outcome this assay logged for COc1ccc(C2SCC(=O)N2NC(=O)c2ccc(NC(=O)c3ccccn3)cc2)cc1OC (stereo unspecified) ?
FALSE

Could you kindly confirm the outcome this assay logged for `O=C1C2=C(C(=O)c3c(O)ccc(O)c31)N(c1cccnc1)Cc1ccccc1O2` ?
TRUE

Could you kindly confirm the outcome this assay logged for `O=C1CCC(=O)N1Cc1ccccc1` ?
FALSE

Could you kindly confirm the outcome this assay logged for `Cc1ccc2c(c1)C(=O)C(c1c(-c3[nH]c(=O)c4ccc(C)cc4c3O)c(O)c3ccccc3c1O)=NC2=O` ?
FALSE

Could you kindly confirm the outcome this assay logged for `C=C1C(=O)O[C@H]2[C@H]1CC/C(Cn1cc(-c3ccc(N)cc3)nn1)=C\CC[C@@]1(C)O[C@@H]21` ?
TRUE

Could you kindly confirm the outcome this assay logged for CC(=O)Nc1ccc(S(=O)(=O)N2C(=O)CCC2C(=O)Nc2ccc(Br)cc2)cc1 (stereo unspecified) ?
FALSE

Could you kindly confirm the outcome this assay logged for `Cc1cc(C)c(NC(=O)c2sc3nc4c(cc3c2N)CN(Cc2ccccc2)CC4)c(C)c1` ?
TRUE

Could you kindly confirm the outcome this assay logged for `O=C1CCCCN1CCCCC#Cc1ccccc1C#Cc1ccccn1` ?
FALSE

Could you kindly confirm the outcome this assay logged for `COc1cccc2cc(-c3cc4ccccc4[nH]3)c(=NC(=O)c3ccc(Cl)cc3)oc12` ?
FALSE

Could you kindly confirm the outcome this assay logged for `COc1cc2c(cc1OCCCCn1c(-c3cc(=O)c4ccccc4o3)nc3ccccc31)N=C[C@@H]1CCCN1C2=O` ?
FALSE

Could you kindly confirm the outcome this assay logged for `Cc1ccc(Cn2c(-c3cccs3)nc3ccccc32)cc1` ?
FALSE

Could you kindly confirm the outcome this assay logged for `COc1ccc(N=C2NN=C(c3ccc(F)cc3)CS2)cc1OC` ?
FALSE

Could you kindly confirm the outcome this assay logged for COc1cc(C2C3=C(COC3=O)Nc3c2ccc2c3CCCC2)cc2c1OCO2 (stereo unspecified) ?
TRUE

Could you kindly confirm the outcome this assay logged for `CCCS(=O)(=O)c1nc(NC2CC2)cc(-c2ccc3c(ccn3C3CC(C)(C)NC(C)(C)C3)c2)n1` ?
TRUE

Could you kindly confirm the outcome this assay logged for `O=c1oc2c([nH]c3ccc4ccccc4c32)c2ccccc12` ?
FALSE

Could you kindly confirm the outcome this assay logged for `O=S(=O)(NCCCNc1nccc(-c2c(-c3ccc(O)cc3)nc3sccn23)n1)c1ccc(F)cc1` ?
TRUE

Could you kindly confirm the outcome this assay logged for `CCCCCCCCCCn1cc[n+](C)c1` ?
FALSE

Could you kindly confirm the outcome this assay logged for COc1cc2c(cc1OC)C1(C)N(CC2)C(=O)OC1(C)C (stereo unspecified) ?
FALSE

Could you kindly confirm the outcome this assay logged for `COc1ccc(-n2cnc3c(sc4ncc(Cl)cc43)c2=O)cc1` ?
FALSE

Could you kindly confirm the outcome this assay logged for `CC1=CNNc2c3ncnc-3ncn21` ?
FALSE

Could you kindly confirm the outcome this assay logged for CCOC(=O)c1ccccc1NC(c1ccccc1)c1ccc2cccnc2c1O (stereo unspecified) ?
FALSE

Could you kindly confirm the outcome this assay logged for `Cc1oc2nc[nH]c(=O)c2c1C(=O)/C=C/c1ccc(Cl)cc1` ?
FALSE

Could you kindly confirm the outcome this assay logged for `CCC(=O)Nc1ccccc1C#C/C=C\C#Cc1ccccc1SC` ?
FALSE

Could you kindly confirm the outcome this assay logged for CC(C(=O)n1cc(-c2ccccc2)c(-c2ccccc2)c1)c1ccccc1 (stereo unspecified) ?
FALSE

Could you kindly confirm the outcome this assay logged for `CC(C)(C)OC(=O)N[C@@H](Cc1ccccc1)C(=O)N(Cc1ccccc1)C1(C(=O)NCc2ccccc2)CCN(Cc2ccccc2)CC1` ?
FALSE

Could you kindly confirm the outcome this assay logged for `CC1CCN(C(=O)CSc2nc3sc4c(c3c(=O)[nH]2)CCCC4)CC1` ?
FALSE

Could you kindly confirm the outcome this assay logged for `CCn1c(=O)c2c(=O)c3c4c(oc3oc2c2ccccc21)C(=O)c1ccccc1C4=O` ?
FALSE

Could you kindly confirm the outcome this assay logged for `O=C(OCCCCOC(=O)n1cnc2ccccc21)n1cnc2ccccc21` ?
FALSE

Could you kindly confirm the outcome this assay logged for CC(Cc1nnc(SCC(=O)Nc2ccc(I)cc2)n1N)c1ccccc1 (stereo unspecified) ?
FALSE

Could you kindly confirm the outcome this assay logged for COC12CC(=O)C(C(C)=O)=C(O)C1(C)c1c(O)c(C)c(O)c(C(C)=O)c1O2 (stereo unspecified) ?
FALSE

Could you kindly confirm the outcome this assay logged for `CCCOC(=O)C1(O)CCCC1` ?
FALSE

Could you kindly confirm the outcome this assay logged for `O=S(=O)(NCCNc1nccc(-c2c(-c3ccccc3)nc3sccn23)n1)c1ccc(O)cc1` ?
FALSE

Could you kindly confirm the outcome this assay logged for N#CC1=C(N)OC2=C(C(=O)CCC2)C1c1ccco1 (stereo unspecified) ?
FALSE

Could you kindly confirm the outcome this assay logged for `O=C(O)c1cccc([N+](=O)[O-])c1/C=C/c1ccccc1` ?
FALSE

Could you kindly confirm the outcome this assay logged for `CCCCCCCC/C=C\CCCCCCCCOc1ccccc1CCOP(=O)(O)OCC[N+](C)(C)C` ?
FALSE
